# pKi values compiled below
# Measured On: human σ1 receptor and human μ-opioid receptor
# Procedure Text: Human σ1 receptor radioligand assay and human μ-opioid receptor radioligand assay (results reported only as combined μ and σ1 dual binding)
# Study Conditions: Ki at human σ1 receptor (HEK-293 membranes, [3H](+)-pentazocine) and human μ-opioid receptor (CHO-K1 membranes, [3H]-DAMGO), one combined class
pKi: −log10 of the molar value.

Solved cases (5 shown):
- CN(C)C(=O)Oc1cccc(C2CCN(Cc3cn(-c4ccccc4)nn3)CC2)c1 [Example 8]: > 6.30
- CC(=O)Oc1cccc(C2CCN(Cc3cn(-c4ccccc4)nn3)CC2)c1 [Example 9]: > 7.00
- NC1(C(=O)Oc2cccc(C3CCN(Cc4cn(Cc5ccccn5)nn4)CC3)c2)CCCCC1 [Example 20]: ≤ 6.30
- CC(C)[C@H](NC(=O)Oc1cccc(C2CCN(Cc3cn(Cc4ccccn4)nn3)CC2)c1)C(=O)O [Example 13]: ≤ 6.30
- COCCCOc1cccc(C2CCN(Cc3cn(-c4ccccc4)nn3)CC2)c1 [Example 11]: > 6.30

Kindly consider the entry below.
Find the recorded pKi belonging to COCCOc1cccc(C2CCN(Cc3cn(-c4ccccc4)nn3)CC2)c1 [Example 10] and report it.
> 6.30

The measurements presented in this section are drawn from patent US9902711B2.
